test.description: Tb^3+ binding affinity of the disulfide constrained LBT
endpoint: pKd
When answering, recall that pKd equals minus log10 of the concentration in mol/L, and write that number alone.

QUERY: Return pKd (reported value) for this substance: ACA-DYNKDGWYEELE-CAA [CC2, cysteine constrained variant of LBT1]
RESULT: 6.52
